- TEST_TARGET: G-protein coupled receptor 55 (Homo sapiens, UniProt Q9Y2T6)
- Sequence (Q9Y2T6 whole entry): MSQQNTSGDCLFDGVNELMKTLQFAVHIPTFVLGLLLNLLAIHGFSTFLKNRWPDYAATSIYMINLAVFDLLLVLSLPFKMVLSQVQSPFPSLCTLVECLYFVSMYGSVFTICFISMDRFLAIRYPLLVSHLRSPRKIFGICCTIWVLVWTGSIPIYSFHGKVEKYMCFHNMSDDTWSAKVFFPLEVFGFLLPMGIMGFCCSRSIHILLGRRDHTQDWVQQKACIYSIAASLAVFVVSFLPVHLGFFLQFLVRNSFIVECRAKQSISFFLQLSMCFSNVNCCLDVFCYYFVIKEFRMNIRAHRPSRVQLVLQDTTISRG
- ASSAY_EXPLANATION: Antagonist activity at recombinant human GPR55 expressed in CHO cells assessed as inhibition of lysophosphatidylinositol-induced beta-arrestin recruitment preincubated for 60 mins followed by lysophosphatidylinositol addition for 90 mins measured for 1 sec by luminescence assay
- Assay type: functional, cell-based
PROPERTY_MEASURED: IC50

Some solved entries appear below for comparison.
- MOL: "Cc1ccc(CSC2=N/C(=C\\c3cccc(OCc4ccc(Cl)cc4)c3)C(=O)N2C)cc1"
  PROPERTY_MEASURED: "IC50"
  RESULT: "> 10 µM"
- MOL: "Cc1ccc(CSC2=N/C(=C\\c3cccc(OCc4ccc(Cl)cc4)c3)C(=O)N2)cc1"
  PROPERTY_MEASURED: "IC50"
  RESULT: "> 10 µM"
- MOL: "O=C1/C(=C/c2cccc(OCCCCCCOc3ccccc3Cl)c2)N=C2SCCCN12"
  PROPERTY_MEASURED: "IC50"
  RESULT: "3.41 µM"

Tell me IC50 of O=C1NC(=S)S/C1=C\c1cccc(OCc2ccc(Cl)cc2)c1 when tested on G-protein coupled receptor 55 (Homo sapiens, UniProt Q9Y2T6). > 10 µM

Specify IC50 for Cc1cccc(C)c1OCCCCCCOc1cccc(/C=C2\N=C3SCCCN3C2=O)c1 , system G-protein coupled receptor 55 (Homo sapiens, UniProt Q9Y2T6). > 10 µM

Write down the reported IC50 (system: G-protein coupled receptor 55 (Homo sapiens, UniProt Q9Y2T6)) of O=C1NC(SCc2ccc(Cl)cc2)=N/C1=C\c1cccc(OCc2ccc(Cl)cc2)c1 > 10 µM

Origin of the recorded values: ChEMBL document CHEMBL4152303
